List of CC50 at 72 h values.
assay: Cytotoxicity against human Hep2 cells after 72 hrs by alamar blue assay; type: cell-based; details: HEp-2 cells

{"columns": ["Compound", "Value Operator", "CC50 at 72 h / µM"],
 "data": [
  ["O=C(O)c1cn(C2CC2)c2cc(N3CCNCC3)c(F)cc2c1=O [CIPROFLOXACIN]", ">", 100],
  ["O=c1[nH]sc2c1c(=O)c1cc(F)c(N3CCNCC3)cc1n2C1CC1", "=", 7],
  ["COc1c(N2CC[C@@H](C(C)NCC(F)(F)F)C2)c(F)cc2c(=O)c3c(=O)[nH]sc3n(C3CC3)c12 (mixture of isomers)", "=", 41],
  ["COc1c(N2CC[C@@H](N)C2)c(F)cc2c(=O)c3c(=O)[nH]sc3n(C3CC3)c12", "=", 25],
  ["CNC[C@@H]1CCN(c2c(F)cc3c(=O)c4c(=O)[nH]sc4n(C4CC4)c3c2OC)C1", "=", 28]
]}

----------
assay: Cytotoxicity against human Hep2 cells after 72 hrs by alamar blue assay; format: cell-based; conditions: HEp-2 cells
List of CC50 at 72 h values.
Quantity Measured: CC50 at 72 h (µM)

{"columns": ["Compound", "Quantity Measured", "Numeric Value"],
 "data": [
  ["CN[C@H](C)[C@@H]1CCN(c2c(F)cc3c(=O)c4c(=O)[nH]sc4n(C4CC4)c3c2OC)C1", "CC50 at 72 h", 29],
  ["COc1c(N2CC[C@@H](C(C)(C)NCCF)C2)c(F)cc2c(=O)c3c(=O)[nH]sc3n(C3CC3)c12", "CC50 at 72 h", 19],
  ["COc1c(N2CC[C@H](CN)C2)c(F)cc2c(=O)c3c(=O)[nH]sc3n(C3CC3)c12", "CC50 at 72 h", 11],
  ["COc1c(N2CC[C@@H](C(C)NC3CCCC3)C2)c(F)cc2c(=O)c3c(=O)[nH]sc3n(C3CC3)c12 (mixture of isomers)", "CC50 at 72 h", 42],
  ["CCN[C@@H](C)[C@@H]1CCN(c2c(F)cc3c(=O)c4c(=O)[nH]sc4n(C4CC4)c3c2OC)C1", "CC50 at 72 h", 27],
  ["COc1c(N2CC[C@@H](CNCCF)C2)c(F)cc2c(=O)c3c(=O)[nH]sc3n(C3CC3)c12", "CC50 at 72 h", 18],
  ["CC[C@@H](NC)[C@@H]1CCN(c2c(F)cc3c(=O)c4c(=O)[nH]sc4n(C4CC4)c3c2OC)C1", "CC50 at 72 h", 58],
  ["COc1c(N2CC[C@H](C(C)NC3CC3)C2)c(F)cc2c(=O)c3c(=O)[nH]sc3n(C3CC3)c12 (mixture of isomers)", "CC50 at 72 h", 43]
]}

----------
List of log10(MIC) values.
test system: Staphylococcus aureus; experiment: Antibacterial activity against methicillin- and quinolone-resistant Staphylococcus aureus ATCC700699 after 24 hrs by microdilution method; type: functional; details: ATCC700699, 24 h
Quantity Measured: log10(MIC) (log10 of the value in µg/mL)

{"columns": ["Compound", "Assay System", "log10(MIC)"],
 "data": [
  ["COc1c(N2CC[C@@H](C(C)N)C2)c(F)cc2c(=O)c3c(=O)[nH]sc3n(C3CC3)c12 (mixture of isomers)", "Staphylococcus aureus", -1.22],
  ["COc1c(N2CC[C@@H](C(C)(C)NCC(C)C)C2)c(F)cc2c(=O)c3c(=O)[nH]sc3n(C3CC3)c12", "Staphylococcus aureus", 0.30],
  ["COc1c(N2CC[C@@H](C(C)NCC(F)(F)F)C2)c(F)cc2c(=O)c3c(=O)[nH]sc3n(C3CC3)c12 (mixture of isomers)", "Staphylococcus aureus", 0.60],
  ["CCNC(C)(C)[C@@H]1CCN(c2c(F)cc3c(=O)c4c(=O)[nH]sc4n(C4CC4)c3c2OC)C1", "Staphylococcus aureus", -0.30],
  ["COc1c(N2CCNCC2)c(F)cc2c(=O)c3c(=O)[nH]sc3n(C3CC3)c12", "Staphylococcus aureus", 0.60],
  ["COc1c(N2CC[C@@H]([C@@H](C)NCCF)C2)c(F)cc2c(=O)c3c(=O)[nH]sc3n(C3CC3)c12", "Staphylococcus aureus", -0.60],
  ["CCN[C@@H](C)[C@@H]1CCN(c2c(F)cc3c(=O)c4c(=O)[nH]sc4n(C4CC4)c3c2OC)C1", "Staphylococcus aureus", -0.89],
  ["O=C(O)c1cn(C2CC2)c2cc(N3CCNCC3)c(F)cc2c1=O", "Staphylococcus aureus", 1.51]
]}

----------
List of CC50 at 72 h values.
assay: Cytotoxicity against human Hep2 cells after 72 hrs by alamar blue assay; assay type: cell-based; conditions: HEp-2 cells
Quantity Measured: CC50 at 72 h (µM)

{"columns": ["Molecule", "Numeric Value"],
 "data": [
  ["COc1c(N2CC[C@@H](C(C)N(C)C)C2)c(F)cc2c(=O)c3c(=O)[nH]sc3n(C3CC3)c12 (mixture of isomers)", 40],
  ["COc1c(N2CCC(C(C)(C)NC3CC3)C2)c(F)cc2c(=O)c3c(=O)[nH]sc3n(C3CC3)c12 (racemic)", 54],
  ["COc1c(N2CC[C@@H](C(C)NC(C)C)C2)c(F)cc2c(=O)c3c(=O)[nH]sc3n(C3CC3)c12 (mixture of isomers)", 51],
  ["COc1c(N2CC[C@@H](C(C)NC3CC3)C2)c(F)cc2c(=O)c3c(=O)[nH]sc3n(C3CC3)c12 (mixture of isomers)", 25],
  ["CN[C@@H](C)[C@@H]1CCN(c2c(F)cc3c(=O)c4c(=O)[nH]sc4n(C4CC4)c3c2OC)C1 (mixture of isomers)", 12],
  ["COc1c(N2CC[C@@H](C3(N)CC3)C2)c(F)cc2c(=O)c3c(=O)[nH]sc3n(C3CC3)c12", 4],
  ["COc1c(N2CC[C@@H]([C@@H](C)N)C2)c(F)cc2c(=O)c3c(=O)[nH]sc3n(C3CC3)c12", 33]
]}

----------
target: DNA gyrase subunit A (Staphylococcus aureus, UniProt P20831, S84L); test: Inhibition of Staphylococcus aureus DNA gyrase Ser84Leu mutant assessed as inhibition of supercoiling of pBR322 DNA after 60 min by gel electrophoresis assay

{"columns": ["Compound", "IC50"],
 "data": [
  ["CN[C@@H](C)[C@@H]1CCN(c2c(F)cc3c(=O)c4c(=O)[nH]sc4n(C4CC4)c3c2OC)C1 (mixture of isomers)", "18.7 µM"],
  ["CO/N=C1\\CN(c2nc3c(cc2F)c(=O)c(C(=O)O)cn3C2CC2)CC1CN (stereo not given)", "> 200 µM"],
  ["COc1c(N2CC[C@@H](C(C)(C)N)C2)c(F)cc2c(=O)c3c(=O)[nH]sc3n(C3CC3)c12", "4.2 µM"],
  ["COc1c(N2CC[C@@H]([C@H](C)N)C2)c(F)cc2c(=O)c3c(=O)[nH]sc3n(C3CC3)c12 (mixture of isomers)", "3.2 µM"],
  ["COc1c(N2CC[C@@H]([C@H](C)NCCF)C2)c(F)cc2c(=O)c3c(=O)[nH]sc3n(C3CC3)c12 (mixture of isomers)", "12 µM"]
]}

----------
tested on: Staphylococcus aureus; assay: Antibacterial activity against methicillin-resistant Staphylococcus aureus ATCC 700699 after 24 hrs by microdilution method; assay type: functional; conditions: ATCC700699, 24 h
Quantity Measured: MIC (µg/mL)

{"columns": ["Compound", "Quantity Measured", "Unit Abbreviation", "Numeric Value"],
 "data": [
  ["COc1c(N2CC[C@@H](C(C)(C)N)C2)c(F)cc2c(=O)c3c(=O)[nH]sc3n(C3CC3)c12", "MIC", "µg/mL", 0.06],
  ["COc1c(N2C[C@@H]3CCCN[C@@H]3C2)c(F)cc2c(=O)c(C(=O)O)cn(C3CC3)c12", "MIC", "µg/mL", 2],
  ["COc1c(N2CC[C@@H]([C@H](C)N)C2)c(F)cc2c(=O)c3c(=O)[nH]sc3n(C3CC3)c12 (mixture of isomers)", "MIC", "µg/mL", 0.06],
  ["O=C(O)c1cn(C2CC2)c2cc(N3CCNCC3)c(F)cc2c1=O", "MIC", "µg/mL", 32],
  ["COc1c(N2CC[C@@H]([C@H](C)NCCF)C2)c(F)cc2c(=O)c3c(=O)[nH]sc3n(C3CC3)c12 (mixture of isomers)", "MIC", "µg/mL", 0.13],
  ["CO/N=C1\\CN(c2nc3c(cc2F)c(=O)c(C(=O)O)cn3C2CC2)CC1CN (configuration not stated)", "MIC", "µg/mL", 2],
  ["CN[C@@H](C)[C@@H]1CCN(c2c(F)cc3c(=O)c4c(=O)[nH]sc4n(C4CC4)c3c2OC)C1 (mixture of isomers)", "MIC", "µg/mL", 0.25]
]}
